- SYSTEM: Nanoluciferase-BRD9 fusion protein (3×FLAG-NLuc-BRD9) in SYO-1 cells (Homo sapiens (Human), UniProt Q9H8M2)
- Sequence (Q9H8M2 whole entry, the tested form may be a part): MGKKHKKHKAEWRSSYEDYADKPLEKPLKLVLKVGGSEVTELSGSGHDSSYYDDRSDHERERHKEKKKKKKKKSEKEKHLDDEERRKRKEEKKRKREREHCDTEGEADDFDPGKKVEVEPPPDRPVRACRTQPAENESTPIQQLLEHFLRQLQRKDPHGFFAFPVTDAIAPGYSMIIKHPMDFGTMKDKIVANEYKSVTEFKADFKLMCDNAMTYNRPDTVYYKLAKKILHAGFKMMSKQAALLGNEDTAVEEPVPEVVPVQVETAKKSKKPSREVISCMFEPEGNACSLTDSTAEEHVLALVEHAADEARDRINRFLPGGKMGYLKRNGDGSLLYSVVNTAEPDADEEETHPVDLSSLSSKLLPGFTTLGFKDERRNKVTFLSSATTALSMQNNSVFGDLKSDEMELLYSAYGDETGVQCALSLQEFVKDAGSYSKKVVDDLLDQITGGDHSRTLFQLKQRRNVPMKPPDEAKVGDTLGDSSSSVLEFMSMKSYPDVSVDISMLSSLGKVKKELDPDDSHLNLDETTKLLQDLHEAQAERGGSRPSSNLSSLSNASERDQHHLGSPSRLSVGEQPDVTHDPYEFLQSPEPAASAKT
- TEST: SYO1 BRD9 NanoLuc degradation assay
- Assay type: cell-based
- CONDITION SUMMARY: SYO-1 cells expressing 3×FLAG-NLuc-BRD9, 6 hours incubation, top dose 1 μM
pIC50: −log10 of the molar value.
EXPERIMENTAL ENDPOINT: pIC50

compound="CNC(=O)N1Cc2c(-c3cc(OC)c(CN4CCC(CCN5CCN(c6ccc7c(c6)C(=O)N(C6CCC(=O)NC6=O)C7=O)CC5)CC4)c(OC)c3)cn(C)c(=O)c2C1 (stereo not shown)" experimental_endpoint=pIC50 result="> 8.00"
compound="CNC(=O)N1CCc2c(-c3cc(OC)c(CN4CC(C(C)(C)N5CCC6(CC5)CN(c5ccc7c(c5)C(=O)N(C5CCC(=O)NC5=O)C7=O)C6)C4)c(OC)c3)cn(C)c(=O)c2C1 (stereo not shown)" experimental_endpoint=pIC50 result="> 8.00"
compound="CNC(=O)N1CCc2c(-c3cc(OC)c(CN(C)c4ccc5c(c4)C(=O)N(C4CCC(=O)NC4=O)C5=O)c(OC)c3)cn(C)c(=O)c2C1 (stereo not shown)" experimental_endpoint=pIC50 result="> 8.00"
compound=CNC(=O)N1Cc2c(-c3cc(OC)c(CN4CCC5(CC4)CN(c4ccc6c(c4)C(=O)N([C@@H]4CCC(=O)NC4=O)C6=O)C5)c(OC)c3)cn(C)c(=O)c2C1 experimental_endpoint=pIC50 result="> 8.00"
compound="CNC(=O)N1CCc2c(-c3cc(OC)c(CN4CCC5(CC4)CN(CCCN4CCN(c6ccc7c(c6)C(=O)N(C6CCC(=O)NC6=O)C7=O)CC4)CCO5)c(OC)c3)cn(C)c(=O)c2C1 (stereo not shown)" experimental_endpoint=pIC50 result="> 8.00"
compound="COc1cc(-c2cn(C)c(=O)c3c2CCN(C(=O)NCC2CC4(CCN(CCCCN5CCN(c6ccc7c(c6)C(=O)N(C6CCC(=O)NC6=O)C7=O)CC5)CC4)C2)C3)cc(OC)c1CN(C)C (stereo not shown)" experimental_endpoint=pIC50 result="7.00 to 8.00"
compound="COc1cc(-c2cn(C)c(=O)c3c2CCN(C(=O)NCC2CC4CN(CCCOc5ccc6c(c5)C(=O)N(C5CCC(=O)NC5=O)C6=O)CC4C2)C3)cc(OC)c1CN(C)C (stereo not shown)" experimental_endpoint=pIC50 result="6.00 to 7.00"
compound="CNC(=O)N1CCc2c(-c3cc(OC)c(CN4CCC(CCN5CCN(c6c(F)cc7c(c6F)C(=O)N(C6CCC(=O)NC6=O)C7=O)CC5)CC4)c(OC)c3)cn(C)c(=O)c2C1 (stereo not shown)" experimental_endpoint=pIC50 result="> 8.00"
compound="CNC(=O)N1CCc2c(-c3cc(OC)c(CN4CCC(CCN5CCN(c6cc7c(c(OC)c6)C(=O)N(C6CCC(=O)NC6=O)C7)CC5)CC4)c(OC)c3)cn(C)c(=O)c2C1 (stereo not shown)" experimental_endpoint=pIC50 result="7.00 to 8.00"
compound="COc1cc(-c2cn(C)c(=O)c3c2CCN(C(=O)NC2CC4CC2CN4CCOc2ccc4c(c2)C(=O)N(C2CCC(=O)NC2=O)C4=O)C3)cc(OC)c1CN(C)C (stereo not shown)" experimental_endpoint=pIC50 result="6.00 to 7.00"
